Taken from patent EP2208725A1.

Measured IC50 (UniProt:Q93009)
Sequence (Q93009 whole entry): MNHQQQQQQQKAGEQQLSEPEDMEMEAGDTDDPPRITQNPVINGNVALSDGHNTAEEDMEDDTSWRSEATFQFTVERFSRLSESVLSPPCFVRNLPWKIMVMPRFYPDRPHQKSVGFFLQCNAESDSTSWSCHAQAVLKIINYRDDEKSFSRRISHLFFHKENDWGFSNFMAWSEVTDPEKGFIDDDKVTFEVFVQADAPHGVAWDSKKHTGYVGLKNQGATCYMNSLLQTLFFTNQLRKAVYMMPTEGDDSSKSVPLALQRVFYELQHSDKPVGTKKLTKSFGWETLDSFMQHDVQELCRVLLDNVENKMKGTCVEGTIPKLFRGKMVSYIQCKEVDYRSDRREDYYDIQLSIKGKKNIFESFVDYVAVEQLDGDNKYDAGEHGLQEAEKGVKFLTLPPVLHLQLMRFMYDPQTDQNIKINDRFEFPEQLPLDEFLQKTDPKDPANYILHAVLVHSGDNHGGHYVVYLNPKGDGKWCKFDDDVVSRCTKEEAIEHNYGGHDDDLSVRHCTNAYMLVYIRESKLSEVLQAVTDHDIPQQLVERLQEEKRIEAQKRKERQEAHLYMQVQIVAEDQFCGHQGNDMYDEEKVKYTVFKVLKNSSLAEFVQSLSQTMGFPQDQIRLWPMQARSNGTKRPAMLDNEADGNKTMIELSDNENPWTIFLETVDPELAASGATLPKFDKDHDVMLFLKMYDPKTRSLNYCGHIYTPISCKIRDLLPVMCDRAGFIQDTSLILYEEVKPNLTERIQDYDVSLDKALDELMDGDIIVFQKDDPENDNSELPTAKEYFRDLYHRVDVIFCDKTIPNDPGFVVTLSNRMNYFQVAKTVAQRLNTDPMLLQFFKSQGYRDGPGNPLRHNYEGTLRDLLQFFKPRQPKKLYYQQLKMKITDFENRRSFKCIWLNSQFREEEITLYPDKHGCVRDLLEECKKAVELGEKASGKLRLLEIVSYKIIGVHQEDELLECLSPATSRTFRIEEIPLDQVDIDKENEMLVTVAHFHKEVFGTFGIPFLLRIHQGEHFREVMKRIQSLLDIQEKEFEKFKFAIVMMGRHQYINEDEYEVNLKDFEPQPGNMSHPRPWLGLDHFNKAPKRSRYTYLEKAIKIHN
Readout name: IC50 (µM)

# annotated cases, reported IC50 shown
{"Molecule": "CC(=O)C1=C(O)C(=O)N(CCc2ccc(Cl)c(Cl)c2)C1c1ccc(Br)cc1 (centres unmarked)", "Target": "UniProt:Q93009", "IC50 (µM)": 1.61}
{"Molecule": "CCOc1ccc(CCN2C(=O)C(O)=C(C(C)=O)C2c2ccc(Br)cc2)cc1 (centres unmarked)", "Target": "UniProt:Q93009", "IC50 (µM)": 6.6}
{"Molecule": "CC(=O)C1=C(O)C(=O)N(CCc2ccccc2)C1c1cccnc1Cl (centres unmarked)", "Target": "UniProt:Q93009", "IC50 (µM)": 12}

a: COc1cccc(CCN2C(=O)C(O)=C(C(C)=O)C2c2ccc(Br)cc2)c1 (centres unmarked)
b: CC(=O)C1=C(O)C(=O)N(CCc2ccc(Br)cc2)C1c1ccc(Cl)cc1 (centres unmarked)
Compare a and b by numeric IC50 and name the larger one. Indicate which entry you chose by stating its label.
a

---

Protein target, amino acids: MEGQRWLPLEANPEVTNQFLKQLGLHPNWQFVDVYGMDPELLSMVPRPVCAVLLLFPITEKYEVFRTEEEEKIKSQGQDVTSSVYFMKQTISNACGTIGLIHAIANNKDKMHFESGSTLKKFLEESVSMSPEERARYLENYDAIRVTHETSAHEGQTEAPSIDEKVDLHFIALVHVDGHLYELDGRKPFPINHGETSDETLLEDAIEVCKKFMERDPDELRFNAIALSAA
pIC50: −log10 of the molar value.
Readout name: pIC50

In one line, give reported pIC50 of the entry CC(=O)C1=C(O)C(=O)N(CCc2ccc(Br)cc2)C1c1ccc(Cl)cc1 (stereo not shown) .
< 3.70

---

Measured IC50 of individual entries
- Target: Caspase 3 (Homo sapiens, UniProt P42574)
- Sequence (P42574 29-175 limits assumed, species assumed): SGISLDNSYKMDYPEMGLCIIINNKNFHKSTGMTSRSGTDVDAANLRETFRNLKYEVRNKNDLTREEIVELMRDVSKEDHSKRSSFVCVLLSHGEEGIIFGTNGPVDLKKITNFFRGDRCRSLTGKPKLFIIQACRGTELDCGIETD
- Sequence (P42574 176-277 limits assumed, species assumed): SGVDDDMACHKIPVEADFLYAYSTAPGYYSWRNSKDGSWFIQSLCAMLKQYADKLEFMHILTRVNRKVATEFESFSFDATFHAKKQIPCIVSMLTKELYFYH

Give me measured IC50, please, for this compound: CC(=O)C1=C(O)C(=O)N(CCc2ccc(Br)cc2)C1c1ccc(Br)cc1 (stereo not drawn)
> 200 µM

Give the reported IC50 for this compound. CC(=O)C1=C(O)C(=O)N(CCc2ccc(Cl)cc2Cl)C1c1ccc(Br)cc1 (stereo not drawn)
> 200 µM

Supply IC50 value. Item: CC(=O)C1=C(O)C(=O)N(CCc2ccc(Cl)cc2)C1c1ccc(Br)cc1 (stereo not drawn)
> 200 µM
